- tested.on: FGFR2 (Homo sapiens, UniProt P21802)
- Construct: made in house; host or cells: E. coli derived from BL21, infected with T7 phage
- Sequence (P21802 22-821): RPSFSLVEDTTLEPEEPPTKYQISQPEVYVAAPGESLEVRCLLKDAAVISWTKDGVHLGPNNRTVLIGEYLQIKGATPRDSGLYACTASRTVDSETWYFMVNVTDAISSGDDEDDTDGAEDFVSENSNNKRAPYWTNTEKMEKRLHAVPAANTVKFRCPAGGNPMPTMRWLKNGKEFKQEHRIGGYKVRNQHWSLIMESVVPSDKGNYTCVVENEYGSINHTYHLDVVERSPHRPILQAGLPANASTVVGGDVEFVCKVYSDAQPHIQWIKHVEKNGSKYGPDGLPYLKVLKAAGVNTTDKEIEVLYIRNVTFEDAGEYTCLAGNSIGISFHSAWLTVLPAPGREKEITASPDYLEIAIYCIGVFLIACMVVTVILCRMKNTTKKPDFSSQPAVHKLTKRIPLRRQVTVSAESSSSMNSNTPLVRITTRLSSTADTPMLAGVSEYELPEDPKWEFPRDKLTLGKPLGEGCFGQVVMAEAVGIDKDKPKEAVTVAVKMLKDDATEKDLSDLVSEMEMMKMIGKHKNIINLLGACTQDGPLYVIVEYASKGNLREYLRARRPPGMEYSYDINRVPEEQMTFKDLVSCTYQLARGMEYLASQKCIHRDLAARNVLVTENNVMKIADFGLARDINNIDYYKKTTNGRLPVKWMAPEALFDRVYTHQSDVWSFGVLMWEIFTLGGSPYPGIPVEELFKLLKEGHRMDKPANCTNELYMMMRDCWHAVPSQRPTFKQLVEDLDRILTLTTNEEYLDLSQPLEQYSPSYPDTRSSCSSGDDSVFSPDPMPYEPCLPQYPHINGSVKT
- protocol.description: Kinase binding assay (kinase-tagged T7 phage, qPCR), Kd
- condition.parameters: read-out: FGFR2 (Kd nM)

molecule | tested.on | Kd
C[C@@H](Oc1ccc2[nH]nc(-c3ccc(NC(=O)CN(C)C)nc3)c2c1)c1c(Cl)cncc1Cl [Example 13] | FGFR2 (Homo sapiens, UniProt P21802) | 0.1 to 100 nM
COc1cc(OC)cc(-c2n[nH]c3ccc(O[C@@H](C)c4c(C)cnnc4C)cc23)c1 [Example 58] | FGFR2 (Homo sapiens, UniProt P21802) | 0.1 to 100 nM
CCN1CCC2(CC1)CC(O)c1cc(-c3n[nH]c4ccc(O[C@H](C)c5c(Cl)cncc5Cl)cc34)ccc1O2 (stereo partly shown) [Example 103] | FGFR2 (Homo sapiens, UniProt P21802) | 100 to 250 nM
Cc1cnnc(C)c1[C@@H](C)Oc1ccc2[nH]nc(-c3cc(C#N)cc(N4CCOCC4)c3)c2c1 [Example 64] | FGFR2 (Homo sapiens, UniProt P21802) | > 1000 nM
Cc1cc(-c2n[nH]c3ccc(O[C@H](C)c4c(Cl)cnc(C)c4Cl)cc23)cnc1O[C@H]1CCOC1 [Example 154] | FGFR2 (Homo sapiens, UniProt P21802) | 250 to 1000 nM
Cc1ncc(Cl)c([C@@H](C)Oc2ccc3[nH]nc(-c4ccc(O[C@@H]5CCOC5)nc4)c3c2)c1Cl [Example 147] | FGFR2 (Homo sapiens, UniProt P21802) | 0.1 to 100 nM
Cc1ncc(Cl)c([C@@H](C)Oc2ccc3[nH]nc(-c4ccc(NC5CCOCC5)nc4)c3c2)c1Cl [Example 156] | FGFR2 (Homo sapiens, UniProt P21802) | 0.1 to 100 nM

* * *

- tested.on: FGFR2 (Homo sapiens, UniProt P21802)
- Construct: made in house; host or cells: E. coli derived from BL21, infected with T7 phage
- protocol.description: Kinase binding assay (kinase-tagged T7 phage, qPCR), Kd
- condition.parameters: read-out: FGFR2 (Kd nM)

compound | Kd
C[C@@H](Oc1ccc2[nH]nc(-c3ccc(OC4CC5(COC5)C4)nc3)c2c1)c1c(Cl)cncc1Cl | 0.1 to 100 nM
COc1ncc(-c2n[nH]c3ccc(O[C@H](C)c4c(Cl)cncc4Cl)cc23)cc1NC(=O)c1ccccn1 | > 1000 nM
COc1cc(NC(=O)c2ccccn2)cc(-c2n[nH]c3ccc(O[C@H](C)c4c(Cl)cncc4Cl)cc23)c1 | > 1000 nM
CCN1CCC2(CCc3cc(-c4n[nH]c5ccc(O[C@H](C)c6c(C)cnnc6C)cc45)ccc3O2)CC1 | 0.1 to 100 nM
Cc1cnnc(C)c1[C@@H](C)Oc1ccc2[nH]nc(-c3cnc(O[C@@H]4CCOC4)c(C#N)c3)c2c1 | 100 to 250 nM
Cc1cc(-c2n[nH]c3ccc(O[C@H](C)c4c(Cl)cncc4Cl)cc23)cnc1N[C@@H]1CCOC1 | 100 to 250 nM
CCN1CCC2(CCc3cc(-c4n[nH]c5ccc(O[C@H](C)c6c(Cl)cncc6Cl)cc45)ccc3O2)CC1 | 0.1 to 100 nM
COCCOc1cc(C#N)cc(-c2n[nH]c3ccc(O[C@H](C)c4c(C)cnnc4C)cc23)c1 | 100 to 250 nM
Cc1cccc(C(=O)N2CCOc3ncc(-c4n[nH]c5ccc(O[C@H](C)c6c(Cl)cncc6Cl)cc45)cc32)n1 | > 1000 nM
Cc1cnnc(C)c1[C@@H](C)Oc1ccc2[nH]nc(-c3cc(C#N)cc(C4CCOC4)c3)c2c1 (stereo partly drawn) | 0.1 to 100 nM
C[C@@H](Oc1ccc2[nH]nc(-c3cnc4c(c3)N(C(=O)CCN(C)C)CCO4)c2c1)c1c(Cl)cncc1Cl | > 1000 nM
Cc1cc(-c2n[nH]c3ccc(O[C@H](C)c4c(C)cnnc4C)cc23)cc(C#N)c1OC1CCN(C2COC2)CC1 | 0.1 to 100 nM
COc1cc2[nH]nc(-c3ccc(N(C)C)nc3)c2cc1O[C@H](C)c1c(Cl)cnc(C)c1Cl | 0.1 to 100 nM
Cc1ccc(C(=O)N2CCOc3ncc(-c4n[nH]c5ccc(O[C@H](C)c6c(Cl)cncc6Cl)cc45)cc32)cn1 | 100 to 250 nM
C[C@@H](Oc1ccc2[nH]nc(-c3cnc4c(c3)NCCO4)c2c1)c1c(Cl)cncc1Cl | 0.1 to 100 nM

* * *

# reported IC50; entries follow
- tested.on: BCR-FGFR1 Ba/F3 (Homo sapiens)
- Construct: host or cells: Ba/F3; the other entry of the earlier key: BCR (P11274, Breakpoint cluster region protein)
- Sequence (P11362 478-767 limits assumed): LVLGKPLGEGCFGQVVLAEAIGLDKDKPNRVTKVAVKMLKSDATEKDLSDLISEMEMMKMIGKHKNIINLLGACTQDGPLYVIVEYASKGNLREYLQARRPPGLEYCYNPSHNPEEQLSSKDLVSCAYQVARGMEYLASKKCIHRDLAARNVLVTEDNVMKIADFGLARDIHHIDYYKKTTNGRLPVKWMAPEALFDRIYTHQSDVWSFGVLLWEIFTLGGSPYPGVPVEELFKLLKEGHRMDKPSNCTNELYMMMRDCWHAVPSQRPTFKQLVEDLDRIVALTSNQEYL
- protocol.description: Ba/F3 cell viability assay (CellTiter-Glo 2.0)
- Assay type: cell-based
- condition.parameters: Ba/F3 BCR-FGFR1 cells, 48 hours
readout.name: IC50

chem.smiles | obs.value
Cc1cc(C#N)cc(-c2n[nH]c3ccc(O[C@H](C)c4c(C)cnnc4C)cc23)c1 | 250 to 1000 nM
C[C@@H](Oc1ccc2[nH]nc(-c3ccc4c(c3)COC3(CCN(CC(F)(F)F)CC3)O4)c2c1)c1c(Cl)cncc1Cl | > 1000 nM
Cc1ncc(Cl)c([C@@H](C)Oc2ccc3[nH]nc(-c4ccc(N[C@@H]5CCOC5)nc4)c3c2)c1Cl | 100 to 250 nM
CCN1CCC(Oc2ncc(-c3n[nH]c4ccc(O[C@H](C)c5c(Cl)cncc5Cl)cc34)cc2C#N)CC1 | 250 to 1000 nM
Cc1ncc(Cl)c([C@@H](C)Oc2ccc3[nH]nc(-c4ccc(N[C@H]5CCOC5)nc4)c3c2)c1Cl | 100 to 250 nM
C[C@@H](Oc1ccc2[nH]nc(-c3ccc(NC(=O)CN(C)C)nc3)c2c1)c1c(Cl)cncc1Cl | 0.1 to 100 nM

* * *

- tested.on: FGFR3 (Homo sapiens, UniProt P22607)
- Construct: made in house; host or cells: E. coli derived from BL21, infected with T7 phage
- Sequence (P22607 23-806): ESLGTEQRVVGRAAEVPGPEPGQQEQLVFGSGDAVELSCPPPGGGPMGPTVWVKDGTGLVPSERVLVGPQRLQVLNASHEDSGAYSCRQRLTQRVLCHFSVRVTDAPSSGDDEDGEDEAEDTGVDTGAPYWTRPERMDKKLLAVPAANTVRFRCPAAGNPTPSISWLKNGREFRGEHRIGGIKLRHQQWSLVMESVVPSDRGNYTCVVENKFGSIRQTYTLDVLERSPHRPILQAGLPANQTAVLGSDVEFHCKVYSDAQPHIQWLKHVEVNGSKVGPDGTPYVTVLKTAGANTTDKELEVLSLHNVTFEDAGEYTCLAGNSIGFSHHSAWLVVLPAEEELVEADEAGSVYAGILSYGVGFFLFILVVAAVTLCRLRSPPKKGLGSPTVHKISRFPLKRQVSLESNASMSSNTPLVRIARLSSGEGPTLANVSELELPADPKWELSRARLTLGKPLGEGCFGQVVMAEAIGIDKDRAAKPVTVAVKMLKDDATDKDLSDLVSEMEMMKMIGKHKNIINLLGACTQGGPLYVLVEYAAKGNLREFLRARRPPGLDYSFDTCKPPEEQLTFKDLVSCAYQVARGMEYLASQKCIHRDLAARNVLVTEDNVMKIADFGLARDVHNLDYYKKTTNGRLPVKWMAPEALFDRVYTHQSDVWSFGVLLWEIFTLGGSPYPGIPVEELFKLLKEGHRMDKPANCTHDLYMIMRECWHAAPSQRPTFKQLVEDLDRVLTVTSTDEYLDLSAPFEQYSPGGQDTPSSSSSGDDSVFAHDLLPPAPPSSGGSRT
- protocol.description: Kinase binding assay (kinase-tagged T7 phage, qPCR), Kd
- condition.parameters: read-out: FGFR3 (Kd nM)
readout.name: Kd

chem.smiles | tested.on | readout.name | obs.value
COc1cc(OC)cc(-c2n[nH]c3ccc(O[C@@H](C)c4c(C)cnnc4C)cc23)c1 | FGFR3 (Homo sapiens, UniProt P22607) | Kd | 0.1 to 100 nM
Cc1cc(C#N)cc(-c2n[nH]c3ccc(O[C@H](C)c4c(C)cnnc4C)cc23)c1 | FGFR3 (Homo sapiens, UniProt P22607) | Kd | 0.1 to 100 nM
C[C@@H](Oc1ccc2[nH]nc(-c3cnc(N[C@@H]4CCOC4)c(C#N)c3)c2c1)c1c(Cl)cncc1Cl | FGFR3 (Homo sapiens, UniProt P22607) | Kd | 0.1 to 100 nM
C[C@@H](Oc1ccc2[nH]nc(-c3cnc(O[C@H]4CCOC4)c(C#N)c3)c2c1)c1c(Cl)cncc1Cl | FGFR3 (Homo sapiens, UniProt P22607) | Kd | 0.1 to 100 nM
COc1cc(OC)cc(-c2n[nH]c3ccc(O[C@H](C)c4c(C)cnnc4C)cc23)c1 | FGFR3 (Homo sapiens, UniProt P22607) | Kd | 0.1 to 100 nM
Cc1cnnc(C)c1[C@@H](C)Oc1ccc2[nH]nc(-c3cnc(O[C@H]4CCOC4)c(C#N)c3)c2c1 | FGFR3 (Homo sapiens, UniProt P22607) | Kd | 0.1 to 100 nM
COc1ncc(-c2n[nH]c3ccc(O[C@H](C)c4c(Cl)cncc4Cl)cc23)cc1NCc1ccnc(C)c1 | FGFR3 (Homo sapiens, UniProt P22607) | Kd | > 1000 nM
C[C@@H](Oc1ccc2[nH]nc(-c3ccc(S(C)(=O)=O)nc3)c2c1)c1c(Cl)cncc1Cl | FGFR3 (Homo sapiens, UniProt P22607) | Kd | 0.1 to 100 nM
C[C@@H](Oc1ccc2[nH]nc(-c3cc(C#N)cc(C4CC4)c3)c2c1)c1c(Cl)cncc1Cl | FGFR3 (Homo sapiens, UniProt P22607) | Kd | 250 to 1000 nM
CCN1CCC2(CCc3cc(-c4n[nH]c5ccc(O[C@H](C)c6c(C)cnnc6C)cc45)ccc3O2)CC1 | FGFR3 (Homo sapiens, UniProt P22607) | Kd | 0.1 to 100 nM
COc1cc(OCC2CC2)cc(-c2n[nH]c3ccc(O[C@H](C)c4c(C)cnnc4C)cc23)c1 | FGFR3 (Homo sapiens, UniProt P22607) | Kd | > 1000 nM
Cc1cc(-c2n[nH]c3ccc(O[C@H](C)c4c(C)cnnc4C)cc23)cc(C#N)c1F | FGFR3 (Homo sapiens, UniProt P22607) | Kd | 0.1 to 100 nM
CCN1CCC2(CC1)OCc1cc(-c3n[nH]c4ccc(O[C@H](C)c5c(Cl)cncc5Cl)cc34)ccc1O2 | FGFR3 (Homo sapiens, UniProt P22607) | Kd | 0.1 to 100 nM
COc1cc(C#N)cc(-c2n[nH]c3cc(OC)c(O[C@@H](C)c4c(C)cnnc4C)cc23)c1 | FGFR3 (Homo sapiens, UniProt P22607) | Kd | > 1000 nM
C[C@@H](Oc1ccc2[nH]nc(-c3ccc4c(c3)CCC3(CCNCC3)O4)c2c1)c1c(Cl)cncc1Cl | FGFR3 (Homo sapiens, UniProt P22607) | Kd | 0.1 to 100 nM
